- MEASURED_TARGET: human platelet-rich plasma (Homo sapiens, UniProt P05106+P08514)
- Sequence (P08514 32-1039): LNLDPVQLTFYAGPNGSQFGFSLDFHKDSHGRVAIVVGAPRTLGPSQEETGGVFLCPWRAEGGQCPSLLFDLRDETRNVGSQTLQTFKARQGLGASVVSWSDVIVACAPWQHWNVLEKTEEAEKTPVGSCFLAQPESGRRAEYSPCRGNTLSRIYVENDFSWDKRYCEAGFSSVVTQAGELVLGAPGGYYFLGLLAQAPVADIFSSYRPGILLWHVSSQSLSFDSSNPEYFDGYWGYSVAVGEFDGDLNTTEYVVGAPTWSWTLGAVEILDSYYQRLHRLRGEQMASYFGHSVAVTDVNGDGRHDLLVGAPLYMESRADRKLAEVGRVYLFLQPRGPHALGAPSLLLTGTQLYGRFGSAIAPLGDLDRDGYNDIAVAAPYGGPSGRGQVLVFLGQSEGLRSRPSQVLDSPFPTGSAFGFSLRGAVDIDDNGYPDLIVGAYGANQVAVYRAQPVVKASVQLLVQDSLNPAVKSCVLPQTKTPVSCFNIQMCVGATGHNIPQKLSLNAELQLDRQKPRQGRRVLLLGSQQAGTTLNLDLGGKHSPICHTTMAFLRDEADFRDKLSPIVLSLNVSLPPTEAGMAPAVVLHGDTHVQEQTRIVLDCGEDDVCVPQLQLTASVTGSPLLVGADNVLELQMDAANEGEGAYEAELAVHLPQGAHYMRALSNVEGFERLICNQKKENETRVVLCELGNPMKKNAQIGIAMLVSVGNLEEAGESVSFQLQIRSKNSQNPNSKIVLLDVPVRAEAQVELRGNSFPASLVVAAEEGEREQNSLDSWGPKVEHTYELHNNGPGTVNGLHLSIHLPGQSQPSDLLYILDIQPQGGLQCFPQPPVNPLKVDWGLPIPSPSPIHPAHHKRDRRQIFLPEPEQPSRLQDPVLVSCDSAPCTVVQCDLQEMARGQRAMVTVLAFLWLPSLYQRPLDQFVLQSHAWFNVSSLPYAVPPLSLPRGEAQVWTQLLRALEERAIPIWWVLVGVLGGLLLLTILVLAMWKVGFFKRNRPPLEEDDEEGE
- Sequence (P05106 27-788): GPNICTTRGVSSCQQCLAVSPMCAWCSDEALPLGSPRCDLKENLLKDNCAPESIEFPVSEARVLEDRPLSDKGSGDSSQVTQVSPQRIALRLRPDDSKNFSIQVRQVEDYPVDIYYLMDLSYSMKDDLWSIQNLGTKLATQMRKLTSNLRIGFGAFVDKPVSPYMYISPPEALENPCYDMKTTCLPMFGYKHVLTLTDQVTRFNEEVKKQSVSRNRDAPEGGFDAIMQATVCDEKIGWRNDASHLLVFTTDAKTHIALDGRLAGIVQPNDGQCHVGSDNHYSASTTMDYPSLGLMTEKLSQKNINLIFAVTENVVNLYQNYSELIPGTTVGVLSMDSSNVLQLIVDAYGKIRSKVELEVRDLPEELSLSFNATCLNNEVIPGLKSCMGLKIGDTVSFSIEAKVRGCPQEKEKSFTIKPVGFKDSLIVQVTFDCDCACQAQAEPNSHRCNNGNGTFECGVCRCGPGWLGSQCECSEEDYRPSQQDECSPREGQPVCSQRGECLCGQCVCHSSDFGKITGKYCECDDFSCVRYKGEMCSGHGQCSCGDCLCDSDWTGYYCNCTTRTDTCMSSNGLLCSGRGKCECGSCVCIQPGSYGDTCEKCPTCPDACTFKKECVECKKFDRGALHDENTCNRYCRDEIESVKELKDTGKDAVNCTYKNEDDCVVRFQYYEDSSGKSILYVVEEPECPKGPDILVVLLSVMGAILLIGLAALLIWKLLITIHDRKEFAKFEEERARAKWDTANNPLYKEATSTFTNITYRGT
- METHOD_SUMMARY: In vitro inhibition of ADP-induced aggregation of human platelet-rich plasma (Coller assay)
- Format: cell-based
- RUN_PARAMETERS: adjusted for fibrinogen concentration (ca. 30 times lower than Coller assay value; 0.1 mg/mL fibrinogen)
Starred links: 1 amine or outer side, 2 acyl side, 3 side chain; linkers in the order of their positions; H or OH if unused. Positions of bridges follow the written chain, without caps; N, C: chain ends. Non-standard residues stand in square brackets, D forms with d. Residues, ends and D or L forms follow the SMILES beside them. Chains are numbered I, II in the order given. X1 = NC(=O)c1cc(N[*:1])cc(N[*:2])c1; 3Abz = Nc1cccc(C(=O)O)c1; 4Abz = Nc1ccc(C(=O)O)cc1
READOUT_TYPE: IC50 (M)* Estimated IC50 adjusted to the values by the method of Plow et al.
Provide the reading as a plain figure in M.

Some compounds with recorded IC50 (M)* Estimated IC50 adjusted to the values by the method of Plow et al.:
# COMPOUND, VALUE_OBSERVED
rows = [
    ("N=C(N)NCCC[C@H](NC(=O)C1CC(NC(=O)[C@H](Cc2ccccc2)NC(=O)[C@H](CC(=O)O)NC(=O)CNC(=O)[C@@H](N)CCCNC(=N)N)CC(NC(=O)[C@H](Cc2ccccc2)NC(=O)[C@H](CC(=O)O)NC(=O)CNC(=O)[C@@H](N)CCCNC(=N)N)C1)C(=O)NCC(=O)N[C@@H](CC(=O)O)C(=O)N[C@@H](Cc1ccccc1)C(=O)O (some centres unmarked) [Example 16, (RGDF)2 Dac--RGDF--OH]", "7.2e-07"),
    ("N=C(N)NCCC[C@H](NC(=O)CN)C(=O)NCC(=O)N[C@@H](CC(=O)O)C(=O)N[C@@H](Cc1ccccc1)C(=O)NCCC[C@H](NC(=O)[C@H](Cc1ccccc1)NC(=O)[C@H](CC(=O)O)NC(=O)CNC(=O)[C@H](CCCNC(=N)N)NC(=O)CN)C(N)=O", "4.4e-06"),
    ("N=C(N)NCCC[C@H](N)C(=O)NCC(=O)N[C@@H](CC(=O)O)C(=O)N[C@@H](Cc1ccccc1)C(=O)N1CCC[C@H]1C(=O)NCC(=O)Nc1cc(NC(=O)CNC(=O)[C@@H]2CCCN2C(=O)[C@H](Cc2ccccc2)NC(=O)[C@H](CC(=O)O)NC(=O)CNC(=O)[C@@H](N)CCCNC(=N)N)cc(C(N)=O)c1 [Example 2, (RGDFPG)2 Dab--NH2] (I: H-RGDFPG / II: H-RGDFPG; linker I:C-II:C via X1; N-terminus assumed)", "4.2e-07"),
    ("N=C(N)NCCC[C@H](NC(=O)CN)C(=O)NCC(=O)N[C@@H](CC(=O)O)C(=O)N[C@@H](Cc1ccccc1)C(=O)NCC(=O)Nc1cc(NC(=O)CNC(=O)[C@H](Cc2ccccc2)NC(=O)[C@H](CC(=O)O)NC(=O)CNC(=O)[C@H](CCCNC(=N)N)NC(=O)CN)cc(C(=O)NCC(=O)N[C@@H](CCCNC(=N)N)C(=O)NCC(=O)N[C@@H](CC(=O)O)C(=O)N[C@@H](Cc2ccccc2)C(N)=O)c1", "1.1e-06"),
    ("CC(C)[C@H](NC(=O)[C@H](CC(=O)O)NC(=O)CNC(=O)[C@H](CCCNC(=N)N)NC(=O)CN)C(=O)NCC(=O)Nc1cccc(C(=O)NCC(=O)N[C@@H](CCCNC(=N)N)C(=O)NCC(=O)N[C@@H](CC(=O)O)C(=O)N[C@@H](Cc2ccccc2)C(N)=O)c1 [Example 29, GRGDVG--(m)Abz--GRGDF--NH2] (H-GRGDVG[3Abz]GRGDF-NH2)", "1.5e-06"),
]

Incoming: Answer with the recorded IC50 (M)* Estimated IC50 adjusted to the values by the method of Plow et al. of `N=C(N)NCCC[C@H](NC(=O)CN)C(=O)NCC(=O)N[C@@H](CC(=O)O)C(=O)N[C@@H](Cc1ccccc1)C(=O)NCCC[C@H](NC(=O)[C@H](Cc1ccccc1)NC(=O)[C@H](CC(=O)O)NC(=O)CNC(=O)[C@H](CCCNC(=N)N)NC(=O)CN)C(=O)NCC(=O)N[C@@H](CCCNC(=N)N)C(=O)NCC(=O)N[C@@H](CC(=O)O)C(=O)N[C@@H](Cc1ccccc1)C(N)=O` only.
Outgoing: 2.1e-06

Incoming: Indicate its recorded IC50 (M)* Estimated IC50 adjusted to the values by the method of Plow et al.; the compound in question is N=C(N)NCCC[C@H](N)C(=O)NCC(=O)N[C@@H](CC(=O)O)C(=O)N[C@@H](Cc1ccccc1)C(=O)NCCCC[C@H](NC(=O)[C@H](Cc1ccccc1)NC(=O)[C@H](CC(=O)O)NC(=O)CNC(=O)[C@@H](N)CCCNC(=N)N)C(N)=O [Example 3, (RGDF)2 Lys--NH2]
Outgoing: 1.2e-06

Incoming: Retrieve IC50 (M)* Estimated IC50 adjusted to the values by the method of Plow et al. measured for `CCCCCC(=O)N[C@@H](CCCNC(=N)N)C(=O)NCC(=O)N[C@@H](CC(=O)O)C(=O)N[C@@H](Cc1ccccc1)C(=O)NCCCC[C@H](NC(=O)[C@H](Cc1ccccc1)NC(=O)[C@H](CC(=O)O)NC(=O)CNC(=O)[C@H](CCCNC(=N)N)NC(=O)CCCCC)C(N)=O` and print it.
Outgoing: 7.6e-08

Incoming: Please give the documented IC50 (M)* Estimated IC50 adjusted to the values by the method of Plow et al. of N=C(N)NCCC[C@H](NC(=O)CN)C(=O)NCC(=O)N[C@@H](CC(=O)O)C(=O)N[C@@H](CO)C(=O)NCC(=O)Nc1cccc(C(=O)NCC(=O)N[C@@H](CCCNC(=N)N)C(=O)NCC(=O)N[C@@H](CC(=O)O)C(=O)N[C@@H](Cc2ccccc2)C(N)=O)c1 [Example 26, GRGDSG--(m)Abz--GRGDF--NH2] (H-GRGDSG[3Abz]GRGDF-NH2)
Outgoing: 3e-06

Incoming: Identify IC50 (M)* Estimated IC50 adjusted to the values by the method of Plow et al. associated with the compound `N=C(N)NCCC[C@H](NC(=O)CN)C(=O)NCC(=O)N[C@@H](CC(=O)O)C(=O)N[C@@H](Cc1ccccc1)C(=O)NCCCC[C@H](NC(=O)[C@H](Cc1ccccc1)NC(=O)[C@H](CC(=O)O)NC(=O)CNC(=O)[C@H](CCCNC(=N)N)NC(=O)CN)C(=O)NCC(=O)N[C@@H](CCCNC(=N)N)C(=O)NCC(=O)N[C@@H](CC(=O)O)C(=O)N[C@@H](Cc1ccccc1)C(N)=O`
Outgoing: 1.7e-06

Incoming: Name the recorded IC50 (M)* Estimated IC50 adjusted to the values by the method of Plow et al. of the compound listed here: N=C(N)NCCC[C@H](NC(=O)CN)C(=O)NCC(=O)N[C@@H](CC(=O)O)C(=O)N[C@@H](Cc1ccccc1)C(=O)NCC(=O)Nc1ccc(C(=O)NCC(=O)N[C@@H](CCCNC(=N)N)C(=O)NCC(=O)N[C@@H](CC(=O)O)C(=O)N[C@@H](Cc2ccccc2)C(N)=O)cc1 [Example 24, GRGDFG--(p)Abz--GRGDF--NH2] (H-GRGDFG[4Abz]GRGDF-NH2)
Outgoing: 2.1e-06

----------
- MEASURED_TARGET: human platelet-rich plasma (Homo sapiens, UniProt P05106+P08514)
- METHOD_SUMMARY: In vitro inhibition of ADP-induced aggregation of human platelet-rich plasma (Coller assay)
- Type: cell-based
- RUN_PARAMETERS: adjusted for fibrinogen concentration (ca. 30 times lower than Coller assay value; 0.1 mg/mL fibrinogen)
Starred links: 1 amine or outer side, 2 acyl side, 3 side chain; linkers in the order of their positions; H or OH if unused. Positions of bridges follow the written chain, without caps; N, C: chain ends. Non-standard residues stand in square brackets, D forms with d. Residues, ends and D or L forms follow the SMILES beside them. Chains are numbered I, II in the order given. X2 = O=C(O)CNC(=O)c1cc(N[*:1])cc(N[*:2])c1; Adipoyl = O=C(CCCCC(=O)[*:2])[*:1]; Glutaryl = O=C(CCCC(=O)[*:2])[*:1]; 4Abz = Nc1ccc(C(=O)O)cc1; 2Abz = Nc1ccccc1C(=O)O
READOUT_TYPE: IC50 (M)* Estimated IC50 adjusted to the values by the method of Plow et al.
Number only, in M; omit the unit.

For orientation, consider the following solved cases.
# COMPOUND, VALUE_OBSERVED
data = [
    ("N=C(N)NCCC[C@H](NC(=O)CN)C(=O)NCC(=O)N[C@@H](CC(=O)O)C(=O)N[C@@H](Cc1ccccc1)C(=O)NCC(=O)Nc1ccccc1C(=O)NCC(=O)N[C@@H](CCCNC(=N)N)C(=O)NCC(=O)N[C@@H](CC(=O)O)C(=O)N[C@@H](Cc1ccccc1)C(N)=O [Example 22, GRGDFG-(o)Abz--GRGDF--NH2] (H-GRGDFG[2Abz]GRGDF-NH2)", "3.1e-06"),
    ("N=C(N)NCCC[C@H](N)C(=O)NCC(=O)N[C@@H](CC(=O)O)C(=O)N[C@@H](Cc1ccccc1)C(=O)N1CCC[C@H]1C(=O)NCC(=O)Nc1cc(NC(=O)CNC(=O)[C@@H]2CCCN2C(=O)[C@H](Cc2ccccc2)NC(=O)[C@H](CC(=O)O)NC(=O)CNC(=O)[C@@H](N)CCCNC(=N)N)cc(C(=O)NCC(=O)O)c1 [Example 1, (RGDFPG)2 Dab--G--OH] (I: H-RGDFPG / II: H-RGDFPG; linker I:C-II:C via X2; N-terminus assumed)", "6.7e-07"),
    ("N=C(N)NCCC[C@H](NC(=O)CCCC(=O)N[C@@H](CCCNC(=N)N)C(=O)NCC(=O)N[C@@H](CC(=O)O)C(=O)N[C@@H](Cc1ccccc1)C(=O)O)C(=O)NCC(=O)N[C@@H](CC(=O)O)C(=O)N[C@@H](Cc1ccccc1)C(=O)O [Example 13, Pda (RGDF--OH)2] (I: RGDF-OH / II: RGDF-OH; linker I:N-II:N via Glutaryl)", "5e-07"),
    ("N=C(N)NCCC[C@H](NC(=O)CCCCC(=O)N[C@@H](CCCNC(=N)N)C(=O)NCC(=O)N[C@@H](CC(=O)O)C(=O)N[C@@H](Cc1ccccc1)C(=O)O)C(=O)NCC(=O)N[C@@H](CC(=O)O)C(=O)N[C@@H](Cc1ccccc1)C(=O)O [Example 14, Bda(RGDF--OH)2] (I: RGDF-OH / II: RGDF-OH; linker I:N-II:N via Adipoyl)", "4.7e-07"),
    ("N=C(N)NCCC[C@H](NC(=O)CN)C(=O)NCC(=O)N[C@@H](CC(=O)O)C(=O)N[C@@H](CO)C(=O)NCC(=O)Nc1ccc(C(=O)NCC(=O)N[C@@H](CCCNC(=N)N)C(=O)NCC(=O)N[C@@H](CC(=O)O)C(=O)N[C@@H](Cc2ccccc2)C(N)=O)cc1 [Example 27, GRGDSG-(p)Abz--GRGDF--NH2] (H-GRGDSG[4Abz]GRGDF-NH2)", "1.7e-06"),
]

Incoming: Given CC(C)[C@H](NC(=O)[C@H](CC(=O)O)NC(=O)CNC(=O)[C@H](CCCNC(=N)N)NC(=O)CN)C(=O)NCC(=O)Nc1ccccc1C(=O)NCC(=O)N[C@@H](CCCNC(=N)N)C(=O)NCC(=O)N[C@@H](CC(=O)O)C(=O)N[C@@H](Cc1ccccc1)C(N)=O [Example 28, GRGDVG--(o)Abz--GRGDF--NH2] (H-GRGDVG[2Abz]GRGDF-NH2) , respond with its IC50 (M)* Estimated IC50 adjusted to the values by the method of Plow et al..
Outgoing: 3.1e-06

Incoming: Fill in IC50 (M)* Estimated IC50 adjusted to the values by the method of Plow et al. for record N=C(N)NCCC[C@H](NC(=O)c1ccccc1)C(=O)NCC(=O)N[C@@H](CC(=O)O)C(=O)N[C@@H](Cc1ccccc1)C(=O)NCCCC[C@H](NC(=O)[C@H](Cc1ccccc1)NC(=O)[C@H](CC(=O)O)NC(=O)CNC(=O)[C@H](CCCNC(=N)N)NC(=O)c1ccccc1)C(N)=O [Example 7, (BzRGDF)2 Lys--NH2]
Outgoing: 2.9e-07

Incoming: Kindly indicate its recorded IC50 (M)* Estimated IC50 adjusted to the values by the method of Plow et al.. Item: N=C(N)NCCC[C@H](NC(=O)CN)C(=O)NCC(=O)N[C@@H](CC(=O)O)C(=O)N[C@@H](Cc1ccccc1)C(=O)NCC(=O)Nc1ccc(C(=O)NCC(=O)N[C@@H](CCCNC(=N)N)C(=O)NCC(=O)N[C@@H](CC(=O)O)C(=O)N[C@@H](Cc2ccccc2)C(=O)O)cc1 [Example 21, GRGDFG--(p)Abz--GRGDF--OH] (H-GRGDFG[4Abz]GRGDF-OH)
Outgoing: 1.2e-06
